Experiment: Saturated solubility of BA in solvents, 25° C., absorbance at 320 nm
Assay type: physicochemical
Details: solvent (liquid filled capsule vehicle), 25 °C, organic solvent or mixture, thermodynamic from solid, 100% PEG 400, 25° C.; read-out: BA Solubility
quantity measured: solubility (mg/mL)

| molecule | quantity measured | observed measurement |
| --- | --- | --- |
| NC(=O)c1ccc(I)c([N+](=O)[O-])c1 [BA, 4-iodo-3-nitrobenzamide] | solubility | 186 |
